Cited source: ChEMBL document CHEMBL5335866

Protein target, amino acids: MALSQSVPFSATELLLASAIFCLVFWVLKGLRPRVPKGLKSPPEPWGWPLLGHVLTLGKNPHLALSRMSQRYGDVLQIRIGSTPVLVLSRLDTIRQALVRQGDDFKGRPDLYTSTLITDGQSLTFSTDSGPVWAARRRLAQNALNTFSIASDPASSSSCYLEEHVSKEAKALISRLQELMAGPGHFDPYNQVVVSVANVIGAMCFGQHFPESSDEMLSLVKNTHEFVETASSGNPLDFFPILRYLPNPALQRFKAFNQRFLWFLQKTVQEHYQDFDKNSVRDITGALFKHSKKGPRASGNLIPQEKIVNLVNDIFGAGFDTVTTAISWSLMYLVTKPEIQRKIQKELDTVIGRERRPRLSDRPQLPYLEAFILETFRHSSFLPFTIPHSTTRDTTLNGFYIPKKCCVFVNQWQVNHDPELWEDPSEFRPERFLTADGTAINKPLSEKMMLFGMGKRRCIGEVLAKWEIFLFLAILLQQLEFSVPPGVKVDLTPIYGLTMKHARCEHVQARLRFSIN
pIC50: −log10 of the molar value.
Measure name: pIC50

Ask | Reported pIC50 for CC1(C)Cn2nc(-c3ccc(F)cn3)c(-c3ccnc4[nH]ncc34)c2CO1 : what is it?
Reply | < 4.70
